Test system: Caco-2
Method Summary: cell viability relative to DMSO; higher = less toxic
Condition Summary: 72 h; 100 nM
Label key: 1 means cell viability under 90%; 0 means cell viability of 90% or more.

molecule=COc1cc(/C=C2\CCC/C(=C\c3ccc(O)c(OC)c3)C2=O)ccc1O category=0
molecule=O=C(O)CCc1ccc(NCc2cccc3c2CCCN3CCOc2ccccc2)cc1F category=0
molecule="C[N+]1([O-])[C@@H]2C[C@@H](OC(=O)[C@H](CO)c3ccccc3)C[C@H]1[C@@H]1O[C@@H]12 (some centres not stated) [scopolamine-N-oxide]" category=1
molecule=C[C@@H]1C/C=C/C=C/C=C/C=C/[C@H](O[C@@H]2O[C@H](C)[C@@H](O)[C@H](N)[C@@H]2O)C[C@@H]2O[C@](O)(C[C@@H](O)C[C@H]3O[C@@H]3/C=C/C(=O)O1)C[C@H](O)[C@H]2C(=O)O category=0
molecule=COc1cc(OC)cc(N(CCNC(C)C)c2ccc3ncc(-c4cnn(C)c4)nc3c2)c1 category=0

====

Test system: U2OS
Method Summary: cell viability relative to DMSO; higher = less toxic
Condition Summary: 72 h; 1 nM
Quick reference: cell viability of the listed items.
Readout Label: cell viability

compound=COc1ccc(O)cc1 system=U2OS readout_label="cell viability" assay_value=100%
compound="CCc1ccc(CCOc2ccc(CC3SC(=O)NC3=O)cc2)nc1 (stereo not given)" system=U2OS readout_label="cell viability" assay_value=94.8%
compound=CC1(N2CCC(n3c([C@@H]4CCCNC4)nc4ccccc43)CC2)CCCCCCC1 system=U2OS readout_label="cell viability" assay_value=98.6%
compound=C[C@H](CCC(=O)O)[C@H]1CC[C@H]2[C@@H]3[C@@H](O)C[C@@H]4C[C@H](O)CC[C@]4(C)[C@H]3CC[C@]12C system=U2OS readout_label="cell viability" assay_value=104%
compound="CC1(C)OC2(C)C(O)CC1CC2O (stereo not given)" system=U2OS readout_label="cell viability" assay_value=108%
compound="COc1ccc(CC2NCCc3c2[nH]c2ccc(C)cc32)c(Cl)c1OC (stereo not given)" system=U2OS readout_label="cell viability" assay_value=95.4%
compound=CC(C)(Sc1ccc(CCN(CCCCC2CCCCC2)C(=O)NC2CCCCC2)cc1)C(=O)O system=U2OS readout_label="cell viability" assay_value=101%
compound=Cc1cc(N2CCN([C@@H]3CN[C@H](C(=O)N4CCSC4)C3)CC2)n(-c2ccccc2)n1 system=U2OS readout_label="cell viability" assay_value=95.8%
compound=CN(C)CCCN1c2ccccc2Sc2ccccc21 system=U2OS readout_label="cell viability" assay_value=98.7%
compound=CCCCCCCCCCCCC[N+](C)(C)Cc1ccccc1 system=U2OS readout_label="cell viability" assay_value=97.7%
compound=CC(C)(C)c1ccc(-c2nc3ccccc3[nH]2)cc1 system=U2OS readout_label="cell viability" assay_value=101%
compound=CC(C)(C)c1ccc(C(=O)Nc2cn3cc(-n4ccnc4)ccc3n2)cc1 system=U2OS readout_label="cell viability" assay_value=96.4%
compound=O=C1c2c(O)cccc2Cc2cccc(O)c21 system=U2OS readout_label="cell viability" assay_value=92.3%
compound=O=C1C(=C(O)/C=C/c2ccc(O)cc2)C(=O)[C@@](O)([C@@H]2O[C@H](CO)[C@@H](O)[C@H](O)[C@H]2O)C(=O)[C@H]1[C@@H]1O[C@H](CO)[C@@H](O)[C@H](O)[C@H]1O system=U2OS readout_label="cell viability" assay_value=101%
compound="Nc1ncc2c(n1)CC(c1ccco1)CC2=O (stereo not given)" system=U2OS readout_label="cell viability" assay_value=96.4%
compound=CC(C)C[C@H](NC(=O)N1CCCCCC1)C(=O)N[C@H](Cc1cn(C)c2ccccc12)C(=O)N[C@H](Cc1ccccn1)C(=O)O system=U2OS readout_label="cell viability" assay_value=99.1%
compound=Cc1cccc(C)c1NC(=O)CN1CCCC1=O system=U2OS readout_label="cell viability" assay_value=96.5%
compound=C[C@H](NC(=O)c1sccc1OCc1ccc(Cl)cc1)c1ccccc1 system=U2OS readout_label="cell viability" assay_value=92.3%
compound=O=C(/C=C/c1ccc(O)c(O)c1)c1ccc(O)cc1O system=U2OS readout_label="cell viability" assay_value=93.8%
compound=Oc1c(I)cc(I)cc1I system=U2OS readout_label="cell viability" assay_value=97.8%

====

Test system: Caco-2
Method Summary: cell viability relative to DMSO; higher = less toxic
Condition Summary: 72 h; 100 nM
Quick reference: cell viability of the listed items.
Readout Label: cell viability (%)

compound="CC[C@H]1OC(=O)[C@H](C)[C@@H](O[C@H]2C[C@@](C)(OC)[C@@H](O)[C@H](C)O2)[C@H](C)[C@@H](O[C@@H]2O[C@H](C)C[C@H](N(C)C)[C@H]2O)[C@](C)(O)C[C@@H](C)C(=O)[C@H](C)[C@@H](O)[C@]1(C)O [erythromycin]" assay_value=97.2
compound="CCC(C)n1ncn(-c2ccc(N3CCN(c4ccc(OCC5COC(Cn6cncn6)(c6ccc(Cl)cc6Cl)O5)cc4)CC3)cc2)c1=O (stereo not drawn) [itraconazole]" assay_value=111
compound="O=C(O)c1ccc(O)c2ncccc12 [IOX1]" assay_value=97.6
compound="O=C1CCC[C@@H]2[C@H]3CCC[N+]4([O-])CCC[C@@H](CN12)[C@@H]34 (stereo partly drawn) [oxymatrine]" assay_value=96.6
compound="CCCC(C)C1(CC)C(=O)NC(=S)NC1=O (stereo not drawn) [thiopental]" assay_value=104
compound="CCOC(=O)C1=C(C)NC(=S)NC1c1cccc(O)c1 (stereo not drawn) [monastrol]" assay_value=94.1
compound=CN(C)C(=O)[C@H](O)[C@H](Cc1ccccc1)NC(=O)c1cc2cc(Cl)ccc2[nH]1 assay_value=96.2
compound="C[N+](C)(C)CC(=O)O [betaine]" assay_value=93.5

====

System: HepG2
Method Summary: cell viability relative to DMSO; higher = less toxic
Condition Summary: 72 h; 10 nM
Readout Label: cell viability (%)

molecule="CCCCCN(CCCOC)C(=O)[C@@H](CCC(=O)O)NC(=O)c1ccc(Cl)c(Cl)c1 [dexloxiglumide]" unit_spec=% assay_value=105
molecule=NC(=O)CC[C@H](NC(=O)Cc1ccccc1)C(=O)O unit_spec=% assay_value=94.4
molecule=N#Cc1ccc2[nH]cc(CCCCN3CCN(c4ccc5oc(C(N)=O)cc5c4)CC3)c2c1 unit_spec=% assay_value=99.9
molecule="CC1(C)OC2(C)C(O)CC1CC2O (stereo not drawn)" unit_spec=% assay_value=98.1
molecule="O=C1CCC[C@@H]2[C@H]3CCC[N+]4([O-])CCC[C@@H](CN12)[C@@H]34 (stereo partly drawn)" unit_spec=% assay_value=97.6
molecule=NS(=O)(=O)c1cccc2c1c([N+](=O)[O-])cc1nc(O)c(O)nc12 unit_spec=% assay_value=105
molecule=CN1C(=O)N(c2cc(Cl)cc(Cl)c2)C(=O)[C@]12CN(c1ccc(C(=O)O)cn1)C[C@H]2c1ccc(C#N)cc1 unit_spec=% assay_value=93.1
molecule=O=C(Nc1ccccc1)Nc1ccc(-c2ccc(C(=O)[C@@H]3CCC[C@@H]3C(=O)O)cc2)cc1 unit_spec=% assay_value=96.4

====

System: HepG2
Method Summary: cell viability relative to DMSO; higher = less toxic
Condition Summary: 72 h; 1 nM
Readout Label: cell viability (%)

compound=CCc1cncnc1N1CCN(Cc2nc3cc(C(F)(F)F)ccc3[nH]2)CC1 readout_label="cell viability" assay_value=97.6
compound="O=C(/C=C/c1cccnc1)c1ccncc1 [3PO]" readout_label="cell viability" assay_value=103
compound="COc1ncc2cc(C(=O)Nc3cc(C(=O)NCc4cccc(Cl)c4)ccc3Cl)c(=O)[nH]c2n1 [TC-S-7004]" readout_label="cell viability" assay_value=98.6
compound="C[C@]12CC[C@H]3[C@@H](CC[C@]4(O)C[C@@H](O)CC[C@]34C=O)[C@@]1(O)CC[C@@H]2C1=CC(=O)OC1 [K-strophanthidin]" readout_label="cell viability" assay_value=96.4
compound="NC[C@H]1O[C@H](O[C@H]2[C@H](O)[C@@H](O[C@H]3O[C@H](CO)[C@@H](O)[C@H](N)[C@H]3O)[C@H](N)C[C@@H]2N)[C@H](N)[C@@H](O)[C@@H]1O [bekanamycin]" readout_label="cell viability" assay_value=94.7
compound="CC1(C)CN(C(=O)c2ccc(-c3cccc4nc(NC(=O)C5CC5)nn34)cc2)C1 [solcitinib]" readout_label="cell viability" assay_value=105
compound=CN1CCN(c2nc3ccccc3nc2Cl)CC1 readout_label="cell viability" assay_value=97.2
compound="C[N+](C)(C)CC(=O)O [betaine]" readout_label="cell viability" assay_value=96.3
compound="N#Cc1ccc2[nH]cc(CCCCN3CCN(c4ccc5oc(C(N)=O)cc5c4)CC3)c2c1 [vilazodone]" readout_label="cell viability" assay_value=107
compound="C[C@H](CCC(=O)O)[C@H]1CC[C@H]2[C@@H]3[C@@H](O)C[C@@H]4C[C@H](O)CC[C@]4(C)[C@H]3CC[C@]12C [ursodiol]" readout_label="cell viability" assay_value=97.7
compound="NCCc1c[nH]cn1 [histamine]" readout_label="cell viability" assay_value=100
compound="C[C@H](O)[C@H](O)[C@H]1CNc2nc(N)[nH]c(=O)c2N1 [sapropterin]" readout_label="cell viability" assay_value=98.6
compound="CCN(CC)Cc1nccn1-c1ccc([N+](=O)[O-])cc1C(=O)c1ccccc1Cl [nizofenone]" readout_label="cell viability" assay_value=100
compound="Cc1cc(-c2nncc3c(C(C)(C)C)c(OCc4ncnn4C)nn23)no1 [MRK-016]" readout_label="cell viability" assay_value=105
compound="CCCCCCC(=O)OC1CC(C)(C)NC(C)(C)C1 [TMPH]" readout_label="cell viability" assay_value=109
compound="CC[N+](CC)(CC)CC(=O)Nc1c(C)cccc1C [QX-314]" readout_label="cell viability" assay_value=95.3
compound="CCOc1cncc(/C=C/CCNC)c1 [TC2559]" readout_label="cell viability" assay_value=100
compound="CCCCCCCCCCC[C@@H](C[C@@H]1OC(=O)[C@H]1CCCCCC)OC(=O)[C@H](CC(C)C)NC=O [orlistat]" readout_label="cell viability" assay_value=104
